Experiment: Protein binding of arbutamine to albumin in IPPSF perfusate
Format: in vitro ADME
Details: bovine, IPPSF perfusate media
READOUT TYPE: fraction unbound
Note: the reply should be a number with no unit written.

q: Which fraction unbound reading was recorded for the molecule Cl.Oc1ccc(CCCCNCC(O)c2ccc(O)c(O)c2)cc1 (stereo not shown) [Arbutamine, hydrochloride] ?
a: 0.36

----------
Assay: Preclinical and clinical studies using intravenous (IV) infusion of an ESA drug
Settings: in vivo, read-out: Pharmacokinetic and pharmacodynamic half-life
READOUT TYPE: HALF-LIFE

q: Which HALF-LIFE reading was recorded for the molecule Cl.Oc1ccc(CCCCNCC(O)c2ccc(O)c(O)c2)cc1 (stereo not shown) ?
a: ~7 min
